All figures here come from patent US20060199856A1.

Biological target: recombinant human DHODH (Homo sapiens)
Construct: provided by Prof; M. Löffler, Marburg, Germany (gift, not purchased)
Experiment: Inhibition assay of DHODH activity (human enzyme)
Type: biochemical
Conditions: recombinant human DHODH, class symbols (in nM); read-out: human IC50-Value
reported property: IC50

Field: example entries. Status: answers known.
COc1ccccc1-c1ccc(NC(=O)C2=C(C(=O)O)CCC2)c([N+](=O)[O-])c1    < 800 nM
O=C(O)C1=C(C(=O)Nc2ccc(-c3cc4ccccc4s3)cc2)CCC1    < 800 nM
COc1cc(-c2cccc(OC(F)(F)F)c2)ccc1NC(=O)C1=C(C(=O)O)CCC1    < 800 nM
CCOc1ccccc1-c1ccc(NC(=O)C2=C(C(=O)O)CCC2)c(F)c1    < 800 nM
COc1ccccc1-c1ccc(OC(=O)C2=C(C(=O)O)CCC2)c(F)c1    < 800 nM

Entry CN(C(=O)C1=C(C(=O)O)CCC1)c1ccc(-c2ccccc2)cc1 , tested on recombinant human DHODH (Homo sapiens), has a reported IC50 of > 1500 nM

Entry Cc1cccc(Sc2ccc(NC(=O)C3=C(C(=O)O)CCC3)cc2)c1 , tested on recombinant human DHODH (Homo sapiens), has a reported IC50 of < 800 nM

Entry O=C(O)C1=C(C(=O)Nc2ccc(OCc3ccccc3F)c(Cl)c2)CCC1 , tested on recombinant human DHODH (Homo sapiens), has a reported IC50 of < 800 nM

Entry CS(=O)(=O)c1ccc(-c2ccc(NC(=O)C3=C(C(=O)O)CCC3)cc2Cl)cc1 , tested on recombinant human DHODH (Homo sapiens), has a reported IC50 of 800 to 1500 nM

Entry O=C(O)C1=C(C(=O)Nc2ccc(OCc3c(F)cccc3F)cc2)CCC1 , tested on recombinant human DHODH (Homo sapiens), has a reported IC50 of < 800 nM

Entry O=C(O)C1=C(C(=O)Nc2ccc(-c3ccccc3F)cc2)CCC1 , tested on recombinant human DHODH (Homo sapiens), has a reported IC50 of < 800 nM

Entry O=C(O)C1=C(C(=O)Nc2ccc(OCc3ccccc3C(F)(F)F)c(Cl)c2)CCC1 , tested on recombinant human DHODH (Homo sapiens), has a reported IC50 of < 800 nM

----------
Below is a list of entries, each paired with its recorded pIC50 value.
Biological target: recombinant human DHODH (Homo sapiens, UniProt Q02127)
Construct: provided by Prof; M. Löffler, Marburg, Germany (gift, not purchased)
Sequence (Q02127 whole entry): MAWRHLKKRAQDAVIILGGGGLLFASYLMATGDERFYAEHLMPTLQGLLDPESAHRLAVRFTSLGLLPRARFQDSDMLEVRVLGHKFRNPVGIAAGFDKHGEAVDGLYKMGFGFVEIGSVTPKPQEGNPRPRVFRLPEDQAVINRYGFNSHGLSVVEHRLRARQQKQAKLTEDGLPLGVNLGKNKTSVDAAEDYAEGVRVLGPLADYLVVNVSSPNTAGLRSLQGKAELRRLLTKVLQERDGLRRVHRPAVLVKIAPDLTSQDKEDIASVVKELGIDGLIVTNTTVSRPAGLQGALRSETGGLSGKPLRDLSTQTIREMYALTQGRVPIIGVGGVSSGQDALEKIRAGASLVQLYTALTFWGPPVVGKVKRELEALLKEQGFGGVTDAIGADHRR
Assay: Inhibition assay of DHODH activity (human enzyme)
Format: biochemical
Conditions: recombinant human DHODH, numeric values; read-out: human IC50-Value
When answering, recall that pIC50 equals minus log10 of the concentration in mol/L, and write that number alone.

According to the records, this molecule O=C(O)C1=C(C(=O)Nc2ccc(F)c(F)c2F)CCC1 displays pIC50 of 5.17

According to the records, this molecule O=C(O)C1=C(C(=O)Nc2cccc(C(F)(F)F)c2)CCC1 displays pIC50 of 5.17

According to the records, this molecule O=C(O)C1=C(C(=O)Nc2cc(C(F)(F)F)cc(C(F)(F)F)c2)CCC1 displays pIC50 of 6.00

According to the records, this molecule Nc1ccc(Oc2ccc(NC(=O)C3=C(C(=O)O)CCCC3)cc2)cc1 displays pIC50 of 5.15

----------
Target: recombinant human DHODH (Homo sapiens)
Construct: provided by Prof; M. Löffler, Marburg, Germany (gift, not purchased)
Assay: Inhibition assay of DHODH activity (human enzyme)
Type: biochemical
Conditions: recombinant human DHODH, class symbols (in nM); read-out: human IC50-Value
reported property: IC50

Field: example entries. Status: answers known.
N#Cc1ccc(-c2ccc(NC(=O)C3=C(C(=O)O)CCC3)cc2Cl)cc1    800 to 1500 nM
COc1ccccc1-c1ccc(NC(=O)C2=C(C(=O)O)CCC2)cc1Cl    < 800 nM
O=C(O)C1=C(C(=O)Nc2ccc(-c3ccccc3)cc2)CS(=O)(=O)C1    > 1500 nM

According to the records, this compound COc1ccc(-c2ccc(NC(=O)C3=C(C(=O)O)CCC3)c(OC)c2)c(OC)c1 displays IC50 of < 800 nM

According to the records, this compound COc1ccccc1-c1ccc(NC(=O)C2=C(C(=O)O)CCC2)c(Cl)c1 displays IC50 of < 800 nM
